biological target: MERTK (UniProt Q12866); test: phosphorylation enrichment, bacterial display (enrichment ratio); higher = better substrate or ligand; peptides without Tyr show the background;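 further: 11-residue human phosphosite peptides and single-mutation variants displayed on the E. coli surface, counted by deep sequencing, each peptide's frequency after selection divided by its frequency in the unselected input library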;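 further: frequency after pTyr selection over input frequency; kinase dosed for 20-30% of maximal phosphorylation in three min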
Sequence (Q12866 whole entry, looked up): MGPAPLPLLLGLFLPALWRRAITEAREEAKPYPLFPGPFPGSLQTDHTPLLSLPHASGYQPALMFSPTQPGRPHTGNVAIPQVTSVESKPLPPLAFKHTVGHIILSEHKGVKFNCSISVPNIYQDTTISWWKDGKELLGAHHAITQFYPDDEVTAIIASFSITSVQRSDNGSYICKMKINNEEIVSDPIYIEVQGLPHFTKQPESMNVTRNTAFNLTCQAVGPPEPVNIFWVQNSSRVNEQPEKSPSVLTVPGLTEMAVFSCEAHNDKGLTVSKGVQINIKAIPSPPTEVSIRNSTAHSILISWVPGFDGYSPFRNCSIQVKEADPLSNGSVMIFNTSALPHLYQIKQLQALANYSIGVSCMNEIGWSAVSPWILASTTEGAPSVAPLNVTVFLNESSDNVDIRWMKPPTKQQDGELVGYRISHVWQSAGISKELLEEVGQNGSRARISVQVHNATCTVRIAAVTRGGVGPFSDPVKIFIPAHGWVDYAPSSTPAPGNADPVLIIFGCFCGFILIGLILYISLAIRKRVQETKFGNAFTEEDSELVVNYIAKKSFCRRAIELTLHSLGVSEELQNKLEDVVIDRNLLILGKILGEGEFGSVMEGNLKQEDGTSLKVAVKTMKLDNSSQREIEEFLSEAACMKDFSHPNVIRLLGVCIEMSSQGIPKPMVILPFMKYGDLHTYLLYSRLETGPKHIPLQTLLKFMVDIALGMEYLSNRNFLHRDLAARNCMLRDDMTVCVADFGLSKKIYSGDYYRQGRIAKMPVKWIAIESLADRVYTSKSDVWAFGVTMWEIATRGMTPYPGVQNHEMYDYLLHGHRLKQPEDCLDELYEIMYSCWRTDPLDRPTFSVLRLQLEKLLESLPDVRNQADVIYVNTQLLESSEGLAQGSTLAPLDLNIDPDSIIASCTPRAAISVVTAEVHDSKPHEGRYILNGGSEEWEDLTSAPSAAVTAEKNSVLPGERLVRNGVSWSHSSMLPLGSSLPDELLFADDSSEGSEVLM
Assign phosphorylation enrichment to each entry below.
Number only, no unit.

Which value of phosphorylation enrichment has been reported for SFCFRYRCAAR [SUMF1_Y344_YF] in the records?
0.614

Which value of phosphorylation enrichment has been reported for VYYGSYSCPYG [NKAP_Y104_R106C] in the records?
4.18

Which value of phosphorylation enrichment has been reported for KEAQVYQAFRL [SUCLG2_Y343_K347R] in the records?
4.78

Which value of phosphorylation enrichment has been reported for GGYNNYGYGND [HNRNPH3_Y159] in the records?
0.565

Which value of phosphorylation enrichment has been reported for CRPPFYHRNCM [HGD_Y334_F329C_YF] in the records?
0.452

Which value of phosphorylation enrichment has been reported for RHPREYQDLLN [DES_Y388_L385P] in the records?
0.41

Which value of phosphorylation enrichment has been reported for GEFFRYLAEVA [YWHAG_Y133_D129E_YF] in the records?
0.438

Which value of phosphorylation enrichment has been reported for RLRKYHLGKYL [KLB_Y906_Y906H] in the records?
0.503

Which value of phosphorylation enrichment has been reported for DVRQEYPGMIL [PLXND1_Y616] in the records?
0.487

Which value of phosphorylation enrichment has been reported for RAMRRYLEWGE [ERBB3_Y680_R683W] in the records?
0.466

Which value of phosphorylation enrichment has been reported for IRQDDYESLKE [MTR_Y921_H920D] in the records?
0.474

Which value of phosphorylation enrichment has been reported for PTTKTYFPHFA [HBA1_Y43_D48A] in the records?
0.675

Which value of phosphorylation enrichment has been reported for CFVFFYSFLLK [PTEN_Y178_R173C_YF] in the records?
0.557

Values from the supplement of paper PMC10065799
